Molecular target: CRF receptor (Rattus norvegicus)
Construct: 100 μl of membrane suspension as prepared above to give a total reaction volume of 300 μl; from tissue; host or cells: rat cerebral cortex membrane homogenate
Sequence (P35353 24-415): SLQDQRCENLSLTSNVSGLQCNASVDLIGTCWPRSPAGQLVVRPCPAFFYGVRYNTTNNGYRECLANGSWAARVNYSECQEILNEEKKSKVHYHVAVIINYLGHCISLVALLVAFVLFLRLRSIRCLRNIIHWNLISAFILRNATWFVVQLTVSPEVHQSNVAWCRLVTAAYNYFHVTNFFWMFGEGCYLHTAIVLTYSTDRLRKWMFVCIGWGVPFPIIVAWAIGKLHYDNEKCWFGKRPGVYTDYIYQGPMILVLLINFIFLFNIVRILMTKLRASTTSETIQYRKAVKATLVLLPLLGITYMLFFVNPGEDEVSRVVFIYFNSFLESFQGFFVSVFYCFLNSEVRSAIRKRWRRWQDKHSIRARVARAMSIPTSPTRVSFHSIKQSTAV
Experiment: In vitro CRF receptor binding assay (competition with [125I] ovine CRF, rat cortex membranes)
Details: read-out: Inhibition Ki
pKi: −log10 of the molar value.
Measured pKi of individual entries

Take a look at these entries with their results.
CCN(c1nc(C)cc(N2CC[S+]([O-])CC2)n1)c1ccc(C(C)C)cc1I [compound 56] :: > 6.30
CCN(c1nc(C)cc(NN)n1)c1ccc(C(C)C)cc1Br [compound 146] :: 5.00 to 5.70
CCOC(=O)C(C(=O)OCC)c1nc(C)nc(N(CC)c2ccc(C(C)C)cc2Br)n1 [compound 246] :: > 6.30
CCN(c1nc(C)cc(C(O)c2ccc(OC)cc2)n1)c1ccc(C(C)C)cc1Br (stereo not shown) [compound 292] :: > 6.30
CCN(c1nc(C)cc(CN(C)C)n1)c1ccc(C(C)C)cc1Br [compound 279] :: > 6.30
CCOc1cc(Br)c(N(CC)c2nc(C)cc(C)n2)c(Br)c1 [compound 224] :: > 6.30
CCN(c1nc(C)cc(C)n1)c1c(Br)cc(OC)cc1Br [compound 226] :: > 6.30
Cc1cc(N2CCCC2)nc(N(C)c2ccc(C(C)C)cc2Br)n1 [compound 193] :: > 6.30

Exam item: // pKi lookup, key: CCN(c1nc(C)cc(C(=O)NC)n1)c1ccc(C(C)C)cc1Br [compound 271]
Marked response: > 6.30

Exam item: Can you look up the measured pKi of CCN(c1nc(C)nc(N(C)C)n1)c1c(Br)cc(OC)cc1OC [compound 238] for me?
Marked response: > 6.30

Exam item: Looking for the measured pKi of CCN(c1nc(C)cc(C)n1)c1c(OC)cc(OC)c(Br)c1Br [compound 251] , can you help?
Marked response: 5.70 to 6.30

Exam item: What value of pKi has been recorded for this entry: Cc1cc(C)nc(N(C)c2ccc(C(C)(C)C)cc2Br)n1 [compound 11]
Marked response: > 6.30

Exam item: I am curious: what pKi value has been reported for Cc1cc(Cl)c2c(C#N)cn(-c3ccc(C(C)C)cc3Br)c2n1 [Example 255] ?
Marked response: 5.70 to 6.30

Exam item: Consider the compound CCN(c1nc(C)cc(C(=O)c2ccc(OC)cc2)n1)c1ccc(C(C)C)cc1Br [compound 287] and give its measured pKi.
Marked response: 5.70 to 6.30

Exam item: Request the reported pKi associated with COc1ccc(Nc2nc(C)cc(C)n2)c(Br)c1 [compound 204]
Marked response: 5.00 to 5.70

Exam item: // returns reported pKi for input C=CCN(c1nc(C)cc(N2CCOCC2)n1)c1ccc(C(C)C)cc1I [compound 165]
Marked response: > 6.30

---

Structures can show the parent of a compound that is named as a salt.
Items are presented alongside their recorded melting point.

CCc1ccc(N(C)c2nc(C)cc(C)n2)c(Br)c1 (as salt: hydrochloride) :: 126 to 127 °C
CCOc1cc(Br)c(Nc2nc(C)cc(C)n2)c(Br)c1 :: 165 to 167 °C
CCN(c1nc(C)cc(C(=O)c2cccnc2)n1)c1ccc(C(C)C)cc1Br :: 165 to 167 °C

Exam item: Sample CCN(c1nc(C)nc(Oc2ccccc2)n1)c1ccc(C(C)C)cc1Br — what was its melting point?
Marked response: 140 to 142 °C

Exam item: Give the measured melting point of CCOC(=O)N1CCN(c2nc(C)nc(N(CC)c3c(Br)cc(OC)cc3OC)n2)CC1 .
Marked response: 65 to 70 °C

---

Where a name gives a salt, the structure may show the parent alone.
This listing pairs compounds with measured melting point.

Worked examples follow.
CCN(c1nc(C)cc(C)n1)c1ccc(C(C)C)cc1Br (as salt: hydrochloride) [compound 21] :: 151 to 153 °C
CCN(c1nc(C)cc(C(=O)c2c[nH]c3ccccc23)n1)c1ccc(C(C)C)cc1Br (as salt: HCl) [compound 283] :: 105 to 107 °C
Cc1cc(C)nc(N(C)c2ccccc2I)n1 (as salt: hydrochloride) [compound 53] :: 164 to 166 °C
CCN(c1nc(C)cc(C)n1)c1ccc(CCO)cc1Br [compound 64] :: 58 to 60 °C
CCN(c1nc(C)cc(C(O)(c2ccccc2)c2ccccc2)n1)c1ccc(C(C)C)cc1Br [compound 293] :: 56 to 58 °C

Exam item: Give its melting point value. Item: CCN(c1nc(C)cc(C)n1)c1ccc(N(C)C(C)=O)cc1SC [compound 183]
Marked response: 158 to 160 °C

Exam item: Item under review: CCN(c1cc(OC)nc(OC)n1)c1ccc(C(C)C)cc1Br (as salt: hydrochloride) [compound 130] . Reported melting point?
Marked response: 104 to 106 °C

Exam item: # melting point lookup, item CCN(c1nc(C)cc(C)n1)c1ccccc1Br [compound 5]
Marked response: 94 to 95 °C

Exam item: For Cc1cc(Cl)nc2c1c(C#N)cn2-c1ccc(C(C)C)cc1Br [Example 262] , what is its reported melting point?
Marked response: 123.8 °C

Exam item: Which melting point is reported for this compound? Cc1cc(N2CCCCC2)nc(N(C)c2ccc(C(C)C)cc2Br)n1 [compound 195]
Marked response: 186 to 187 °C

Exam item: # lookup: melting point of CCN(c1nc(C)cc(C)n1)c1ccc(OC)cc1SC [compound 185]
Marked response: 128 to 130 °C

Exam item: Which melting point value belongs to CCN(c1nc(C)cc(C(=O)NCc2ccco2)n1)c1ccc(C(C)C)cc1Br [compound 270] ?
Marked response: 87 to 88 °C

Exam item: Look at this compound and give its reported melting point. CCN(c1nc(C)cc(C(=O)N2CCN(c3ccccc3OC)CC2)n1)c1ccc(C(C)C)cc1Br [compound 268]
Marked response: 57 to 60 °C

Exam item: GET /values?readout=melting point&item= CCN(c1nc(C)nc(N(C)C)n1)c1ccc(C(C)C)cc1Br [compound 240]
Marked response: 72 to 75 °C

Exam item: Name the recorded melting point for CCN(c1nc(C)cc(C(=O)NC2CCCCC2)n1)c1ccc(C(C)C)cc1Br [compound 62] .
Marked response: 115 °C

Exam item: Field request: melting point | item: CCN(c1nc(C)cc(OC[C@@H]2CCCN2C)n1)c1ccc(C(C)C)cc1SC (as salt: hydrochloride) [compound 177]
Marked response: 101 to 103 °C

---

Structures can show the parent of a compound that is named as a salt.
measure: melting point

C=CCN(c1nc(C)cc(C)n1)c1c(Br)cc(OC)cc1OC :: 88 to 90 °C
CCN(c1nc(C)cc(NN)n1)c1ccc(C(C)C)cc1Br (as salt: hydrochloride) :: 117 to 121 °C
Cc1ccc(N(C)c2nc(C)cc(N3CCOCC3)n2)c(Br)c1 :: 40 to 42 °C
Cc1cc(C)c2c(C#N)cn(-c3ccc(C(C)C)cc3Br)c2n1 :: 105.8 °C
CCN(c1nccc(C)n1)c1ccc(C(C)C)cc1Br (as salt: hydrochloride) :: 145 to 147 °C

Exam item: Suppose we examine the compound CCN(c1nc(C)cc(C)n1)c1ccc(C#N)cc1SC ; what melting point value has been reported?
Marked response: 99 to 100 °C

Exam item: Any idea what melting point was measured for CCN(c1nc(C)cc(C)n1)c1ccc(C(C)C)cc1SC [compound 168] ?
Marked response: 64 to 66 °C

Exam item: Which value of melting point has been reported for CCN(c1nc(C)cc(C)n1)c1c(OC)cc(OC)c(Br)c1Br in the records?
Marked response: 133 to 138 °C

Exam item: // query melting point value for entry CCC(=O)c1ccc(N(CC)c2nc(C)cc(C)n2)c(SC)c1
Marked response: 139 to 141 °C

---

Target: CRF receptor (Rattus norvegicus, UniProt P35353)
Construct: 100 μl of membrane suspension as prepared above to give a total reaction volume of 300 μl; from tissue; host or cells: rat cerebral cortex membrane homogenate
Sequence (P35353 24-415): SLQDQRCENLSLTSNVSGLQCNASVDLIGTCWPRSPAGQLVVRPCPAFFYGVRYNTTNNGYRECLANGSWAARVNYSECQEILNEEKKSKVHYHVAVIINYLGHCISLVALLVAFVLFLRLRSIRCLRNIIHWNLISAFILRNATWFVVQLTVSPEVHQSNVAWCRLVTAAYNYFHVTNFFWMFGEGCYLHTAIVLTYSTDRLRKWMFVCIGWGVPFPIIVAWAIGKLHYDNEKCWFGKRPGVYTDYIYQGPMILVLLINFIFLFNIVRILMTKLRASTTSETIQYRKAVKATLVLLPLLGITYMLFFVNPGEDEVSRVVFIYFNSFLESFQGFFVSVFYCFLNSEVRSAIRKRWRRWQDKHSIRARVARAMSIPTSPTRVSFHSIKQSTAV
Experiment: In vitro CRF receptor binding assay (competition with [125I] ovine CRF, rat cortex membranes)
Details: read-out: Inhibition Ki
Quick list: Ki per entry.

Below, 3 molecules whose answers are already recorded.
CCN(c1nc(C)cc(COCc2cc(OC)c(OC)c(OC)c2)n1)c1ccc(C(C)C)cc1Br :: < 500 nM
COc1ccc(N(C)c2nc(C)cc(C)n2)c(OC)c1 :: 501 to 2000 nM
C#CCN(c1nc(C)cc(C)n1)c1ccc(C(C)C)cc1Br :: < 500 nM

Exam item: Test system CRF receptor (Rattus norvegicus, UniProt P35353); read-out Ki; what value for Cc1cc(C)c2c(C#N)cn(-c3ccc(C(C)C)cc3Br)c2n1 ?
Marked response: < 500 nM

Exam item: What Ki appears in the records for this molecule with CRF receptor (Rattus norvegicus, UniProt P35353)? CCN(c1nc(C)cc(N2CCSCC2)n1)c1ccc(C(C)C)cc1I
Marked response: < 500 nM

Exam item: Lab request: please report Ki under test system CRF receptor (Rattus norvegicus, UniProt P35353) for CCN(c1nc(C)nc(N2CCOCC2)n1)c1ccc(C(C)C)cc1Br
Marked response: < 500 nM

Exam item: // lookup Ki | system=CRF receptor (Rattus norvegicus, UniProt P35353) | key= CCCN(c1nc(C)cc(C)n1)c1ccc(C(C)C)cc1Br
Marked response: < 500 nM

Exam item: Missing value: Ki, CRF receptor (Rattus norvegicus, UniProt P35353), entry CCN(c1nc(C)cc(C)n1)c1ccc(N(C)C(C)=O)cc1SC . Fill in?
Marked response: 2000 to 10000 nM

Exam item: Return Ki measured with CRF receptor (Rattus norvegicus, UniProt P35353) given this molecule: Cc1cc(-c2ccccc2)c2ccn(-c3ccc(C(C)C)cc3Br)c2n1
Marked response: < 500 nM
